The entries below come with measured T/C values attached.
Test system: L1210 leukemia ip in BDF1 mice, survival T/C
test-name: NCI In Vivo Anticancer Drug Screen. Data for tumor model L1210 Leukemia (intraperitoneal) in B6D2F1 (BDF1) mice
condition-info: endpoint: mean survival time; dose: 200.0 mg/kg/injection; schedule: Q04DX003 (ip); vehicle: carboxymethylcellulose (CMC); higher = longer survival
Inconclusive results and toxic doses are left out.

For this molecule ( "O=C(Oc1cc(Cl)c(S(=O)(=O)F)cc1Cl)c1ccccc1Cl" ), measured T/C is 90 % of control

For this molecule ( "Cc1cccc(NCC(=O)NN)c1C" ), measured T/C is 90 % of control

For this molecule ( "CCn1c(=O)n(C)c(=O)n1C(=O)c1ccccc1" ), measured T/C is 104 % of control

For this molecule ( "CC(C)N(C(=O)Nc1cc(C(F)(F)F)ccc1Cl)C1CCCCC1" ), measured T/C is 96 % of control

====

Test system: L1210 leukemia ip in BDF1 mice, survival T/C
test-name: NCI In Vivo Anticancer Drug Screen. Data for tumor model L1210 Leukemia (intraperitoneal) in B6D2F1 (BDF1) mice
condition-info: endpoint: mean survival time; dose: 120.0 mg/kg/injection; schedule: Q01DX Z (ip); vehicle: saline
Toxic doses and inconclusive results are not listed. Rule as the data show it: active = T/C of 150% or more; inactive = T/C below 125%.
Pick one and only one: Yes for active, No for inactive

Cc1nc(N)nc(N)c1Oc1ccc(Cl)cc1 = No

Task item: What did this assay record as the result for CC12CCC(C1)C(C)(C)/C2=N\N=C(N)N (stereo unspecified) ?
Reply: No

Task item: What did this assay record as the result for "COc1cc(C(=O)Nc2ccc(C3=NCCN3)cc2)cc(C(=O)Nc2ccc(C3=NCCN3)cc2)c1" ?
Reply: Yes

Task item: What did this assay record as the result for "CC(=O)O/N=C\C(C)=N\OC(C)=O" ?
Reply: No

Task item: What did this assay record as the result for "O=C(Nc1ccc(C(=O)Nc2cccc(C3=NCCN3)c2)cc1)Nc1ccc(C2=NCCN2)cc1" ?
Reply: No

Task item: What did this assay record as the result for "C[n+]1ccccc1NC(=O)c1ccc(C(=O)Nc2cccc[n+]2C)cc1" ?
Reply: No

====

System: L1210 leukemia ip in BDF1 mice, survival T/C
test-name: NCI In Vivo Anticancer Drug Screen. Data for tumor model L1210 Leukemia (intraperitoneal) in B6D2F1 (BDF1) mice
condition-info: endpoint: mean survival time; dose: 400.0 mg/kg/injection; schedule: Q01DX009 (ip); vehicle: Klucel (hydroxypropylcellulose) (HPC); higher = longer survival
Toxic doses and inconclusive results are not listed.
recorded-metric: T/C

Worked examples follow.
CCC(CO)NC(=O)C1C=C2c3cccc4c3c(cn4C)CC2N(C)C1 (configuration not stated) = 120 % of control
O=C(OCC#CC#CCOC(=O)c1cccc2ccccc12)c1cccc2ccccc12 = 93 % of control
CCOC(=O)CSc1ccc([N+](=O)[O-])cc1Cl = 104 % of control
O=C(c1ccccc1)C(Br)C(Br)C(=O)c1ccccc1 (configuration not stated) = 91 % of control
CN(Cc1ccccc1)C(=O)c1ccc(C(=O)N(C)Cc2ccccc2)cc1 = 102 % of control

Entry "CCCCCCC(=O)CC(C)C" ; assay system L1210 leukemia ip in BDF1 mice, survival T/C; T/C recorded at 109 % of control

Entry CC(C)c1ccc(N2P(=O)(N(C)C)N(c3ccc(C(C)C)cc3)P2(=O)N(C)C)cc1 (configuration not stated) ; assay system L1210 leukemia ip in BDF1 mice, survival T/C; T/C recorded at 98 % of control

Entry "OCCC/C=C/CCI" ; assay system L1210 leukemia ip in BDF1 mice, survival T/C; T/C recorded at 98 % of control

Entry "O=C(c1ccccc1)C1CCCCCC1" ; assay system L1210 leukemia ip in BDF1 mice, survival T/C; T/C recorded at 104 % of control

Entry COC1(OC)C2(Cl)C(Cl)=C(Cl)C1(Cl)C1C(=O)C=CC(=O)C12 (configuration not stated) ; assay system L1210 leukemia ip in BDF1 mice, survival T/C; T/C recorded at 98 % of control

Entry "O=C1OC(c2ccc([N+](=O)[O-])cc2)=N/C1=C\c1cc(Br)ccc1O" ; assay system L1210 leukemia ip in BDF1 mice, survival T/C; T/C recorded at 93 % of control

Entry "Nc1ccccc1Sc1c(N)cc2c3c(cccc13)C(=O)NC2=O" ; assay system L1210 leukemia ip in BDF1 mice, survival T/C; T/C recorded at 94 % of control
